system: Yap1 mRNA; assay: Dose-dependent inhibition of human Yap1 in SNU-449 cells (Example 9, RTS36584); format: cell-based; details: 500.0 nM, free uptake, approximately 48 hours
Strand notation (5' to 3'): a small letter for the sugar, then the base; units joined by * are phosphorothioate-linked, units joined directly phosphodiester-linked; [ ] holds rarer units or linkages, { } end groups; capitals alone tell only the bases. e = 2'-O-(2-methoxyethyl) (MOE); k = constrained ethyl (cEt); [5mC] = 5-methylcytosine; d = 2'-deoxy (DNA); m = 2'-O-methyl
Measured % UTC (Yap1 mRNA) accompanies every entry in the list below.
The response must be a number in % UTC with no trailing unit.

# example entries with known answers
Ask | For the substance 1198799 (k[5mC]*eT*kA*dA*dG*dT*dA*dA*dG*dG*dT*dT*eT*e[5mC]*k[5mC]*k[5mC]; antisense) [compound 1198799] , what % UTC (Yap1 mRNA) is on record?
Reply | 13

Ask | Which % UTC (Yap1 mRNA) is reported for this substance? 1197223 (kT*kA*kA*dG*dT*dA*dA*dG*dG*dT*dT*dT*d[5mC]*k[5mC]*k[5mC]*kA; antisense) [compound 1197223]
Reply | 25

Ask | Item 1198353 (kA*kG*kT*dG*dT*dA*dT*dG*dT*d[5mC]*dA*dG*kA*eA*kG*eA; antisense) [compound 1198353] has what recorded % UTC (Yap1 mRNA)?
Reply | 10

Ask | Value lookup for % UTC (Yap1 mRNA); key = 1198502 (kA*kG*dA*dT*dT*dT*dA*dG*dG*dA*dT*eG*k[5mC]*eA*kT*eG; antisense) [compound 1198502]
Reply | 29

Ask | Consider the substance 1197309 (kG*kT*kA*dA*mU*dA*dT*dT*dG*d[5mC]*dA*dA*dT*k[5mC]*kT*kG; antisense) [compound 1197309] and give its measured % UTC (Yap1 mRNA).
Reply | 30

***
Ask | Please look up its % UTC (Yap1 mRNA): 1198312 (kG*k[5mC]*kA*d[5mC]*dT*dT*dT*dT*dA*d[5mC]*dA*dT*kT*eA*kG*eG) [compound 1198312]
Reply | 10

Ask | Fill blank: measured % UTC (Yap1 mRNA) of the substance 1198507 (kT*kT*dA*dT*dA*dT*dG*dG*dT*dT*dT*eT*kG*eT*kG*eT; antisense) [compound 1198507] is ____.
Reply | 29

Ask | % UTC (Yap1 mRNA) lookup needed for 1200797 (kA*kT*kT*dA*dG*mA*dG*dT*dA*dT*dG*dT*dG*kG*k[5mC]*kA; antisense) [compound 1200797] , thanks.
Reply | 23

Ask | // returns reported % UTC (Yap1 mRNA) for input 1198911 (kG*kA*dG*dG*dT*dA*dT*dA*dA*d[5mC]*dT*kG*dG*kG*d[5mC]*kA; antisense) [compound 1198911]
Reply | 12
